# PROTOCOL_DETAILS: chemical genetic growth profiling, strain panel (AID 1159580);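 further: tested at 20 µM; growth read once vehicle control cultures reached saturation at 30 °C; 1 = growth at the plate median or of vehicle wells; lower values mean less growth of the strain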
# SETUP_CONDITIONS: S. cerevisiae deletion strains, growth OD, locus YLR258W, strain gsy2, stronger effect = lower value
Hit rate of the full screen: of about 5,500 compounds, about 2,000 (36%) were called active. Another 18% or so got no clear call; they are omitted. This is one part of the list. Where a SMILES comes first, the peptide text is derived from it.
READOUT_NAME: normalized growth
Keep it simple and answer with nothing but the number.

COMPOUND	VALUE_OBSERVED
COc1ccc2c(c1)CCC1C2CCC2(C)C1C[C@@H](O)C2O (some centres undefined)	0.965

Entry `CCCCOc1cc(C(=O)NCCN(CC)CC)c2ccccc2n1` , normalized growth reported as 1

// recorded normalized growth for `CCOC(=O)c1c(C)cc(O)cc1O` : 0.906

Reported normalized growth of `COC(=O)c1c(C)cc(O)cc1O` : 1.01

Item: `CCC(=O)c1c(O)cc(O)cc1O` | normalized growth: 0.996

normalized growth reading for CC1CC[C@@]2(OC1)O[C@H]1CC3C4CC[C@@H]5C[C@@H](O)CC[C@]5(C)C4CC[C@]3(C)[C@H]1[C@@H]2C (some centres undefined) : 1.03

Data point: `Cc1cc(OC(=O)c2c(C)cc(O)cc2O)cc(O)c1C(=O)O` ; normalized growth = 0.992

Recorded normalized growth (compound COC(=O)[C@H](Cc1ccccc1)NC(=O)[C@@H](N)CC(=O)O (H-Asp-Phe-OMe) ): 1.02

Measured normalized growth, `CN(C)c1ccc2nc3ccc(=[N+](C)C)cc-3sc2c1` : 1.04

Input `NC(N)=NC(=O)c1nc(Cl)c(N)nc1N` . Output normalized growth: 1.02

The recorded normalized growth for `CCCCCCCCCCCC1=C(O)C(=O)C=C(O)C1=O` is 0.911

Value of normalized growth reported for the compound C[N+](C)(C)CC(O)CC(=O)O (centres undefined) is 0.981

// C=C1CCC2(OC1)OC1CC3C4CC=C5CC(O)CC(O)C5(C)C4CCC3(C)C1C2C (centres undefined) : normalized growth value = 0.988

The compound O=C1C=C2C(=CCOC2O)O1 (centres undefined) showed normalized growth equal to 0.794

Per the records, this compound ( CC(=O)Oc1ccc2c(c1OC(C)=O)OCC1(O)Cc3c(cc(OC(C)=O)c(OC(C)=O)c3OC(C)=O)C21 (centres undefined) ) has normalized growth equal to 1

For this compound ( CC1CC[C@]2(NC1)O[C@H]1CC3C4CC[C@H]5C[C@@H](O)CC[C@]5(C)C4CC[C@]3(C)[C@H]1[C@@H]2C (some centres undefined) ), measured normalized growth is 0.0908

Measured normalized growth, O=C(Cc1cccs1)NC1C(=O)N2C(C(=O)[O-])=C(C[n+]3ccccc3)CSC12 (centres undefined) : 0.986

// normalized growth value for C[C@]12CCC3c4ccc(O)cc4CCC3C1C[C@@H](O)[C@@H]2O (some centres undefined) : 1.01

So for `COC(=O)c1c(C)cc(OC)cc1O` , the logged normalized growth turned out to be 0.974

The compound identified as COc1ccc2c(c1)CCC1C2CC[C@@]2(C)C1CC[C@@H]2O (some centres undefined) registered its normalized growth at 0.892

Looking up `CCOC(=O)c1c(C)cc(OC)cc1O` , I see its normalized growth listed as 0.964

Measured normalized growth, C[C@]12CCC3c4ccc(OS(=O)(=O)O)cc4CCC3C1CC[C@H]2O (some centres undefined) : 0.965

// recorded normalized growth for CCCC(C)(COC(N)=O)COC(=O)NC(C)C (centres undefined) : 0.986

Sure, the documented normalized growth for `C=C[C@H]1CN2CC[C@H]1C[C@@H]2[C@@H](OC(=O)OCC)c1ccnc2ccc(OC)cc12` is 0.973
